experiment: PK characteristics in humans (plasma, LC/MS/MS); assay type: in vivo, human; details: human, plasma, oral, 240 mg, Day 1, 240 mg, n=2, mean; read-out: Cmax

- Compound: "Nc1cc(C(F)(F)F)c(-c2nc(N3CCOCC3)c3nc(-c4cccc(NS(=O)(=O)CCCF)c4F)ccc3n2)cn1 [CMPD A]"
  Cmax / ng/mL: 520

* * *

test: PK characteristics in humans (plasma, LC/MS/MS); assay type: in vivo, human; details: human, plasma, oral, 400 mg, Day 15, 400 QD mg, individual subjects; read-out: AUC0-24

- Molecule: "Nc1cc(C(F)(F)F)c(-c2nc(N3CCOCC3)c3nc(-c4cccc(NS(=O)(=O)CCCF)c4F)ccc3n2)cn1"
  AUC(0-t) (ng·h/mL): 25500

* * *

Experiment: PK characteristics in humans (plasma, LC/MS/MS)
Format: in vivo, human
Conditions: human, plasma, oral, 40 mg, steady state, 40 QD mg, n=2, mean, cancer patients; read-out: Cmax
Method: A pharmaceutical formulation of the disclosure comprising the active ingredient N-(3-(2-(6-amino-4-(trifluoromethyl)pyridin-3-yl)-4-morpholinopyrido[3,2-d]pyrimidin-6-yl)-2-fluorophenyl)-3-fluoropropane-1-sulfonamide was evaluated for safety/tolerability and preliminary efficacy in eligible human subjects with advanced solid tumors, and the pharmacokinetic (PK) profile of the active ingredient was investigated for each subject. Eligibility criteria for inclusion in this study included: […]

- Molecule: "Nc1cc(C(F)(F)F)c(-c2nc(N3CCOCC3)c3nc(-c4cccc(NS(=O)(=O)CCCF)c4F)ccc3n2)cn1"
  Unit Abbreviation: "ng/mL"
  Cmax: 348

* * *

assay: PK characteristics in humans (plasma, LC/MS/MS); type: in vivo, human; settings: human, plasma, oral, 80 mg, Day 15, 80 mg, n=2, mean; read-out: AUC0-24

- Compound: "Nc1cc(C(F)(F)F)c(-c2nc(N3CCOCC3)c3nc(-c4cccc(NS(=O)(=O)CCCF)c4F)ccc3n2)cn1 [CMPD A]"
  Unit Abbreviation: "ng·h/mL"
  AUC(0-t): 20100

* * *

test: PK characteristics in humans (plasma, LC/MS/MS); format: in vivo, human; settings: human, plasma, oral, 80 mg, steady state, 80 QD mg, n=2, mean, cancer patients; read-out: Cmax

- Molecule: "Nc1cc(C(F)(F)F)c(-c2nc(N3CCOCC3)c3nc(-c4cccc(NS(=O)(=O)CCCF)c4F)ccc3n2)cn1"
  Cmax (ng/mL): 1060

* * *

Experiment: PK characteristics in humans (plasma, LC/MS/MS)
Assay type: in vivo, human
Settings: human, plasma, oral, 400 mg, Day 1, 400 QD mg, n=2; read-out: Tmax
Protocol: A pharmaceutical formulation of the disclosure comprising the active ingredient N-(3-(2-(6-amino-4-(trifluoromethyl)pyridin-3-yl)-4-morpholinopyrido[3,2-d]pyrimidin-6-yl)-2-fluorophenyl)-3-fluoropropane-1-sulfonamide was evaluated for safety/tolerability and preliminary efficacy in eligible human subjects with advanced solid tumors, and the pharmacokinetic (PK) profile of the active ingredient was investigated for each subject. Eligibility criteria for inclusion in this study included: […]

- Molecule: "Nc1cc(C(F)(F)F)c(-c2nc(N3CCOCC3)c3nc(-c4cccc(NS(=O)(=O)CCCF)c4F)ccc3n2)cn1"
  Unit Abbreviation: "h"
  Tmax: 2

* * *

test: PK characteristics in humans (plasma, LC/MS/MS); assay type: in vivo, human; details: human, plasma, oral, 80 mg, Day 1, 80 mg, n=2, mean; read-out: AUC0-24

- Molecule: "Nc1cc(C(F)(F)F)c(-c2nc(N3CCOCC3)c3nc(-c4cccc(NS(=O)(=O)CCCF)c4F)ccc3n2)cn1 [CMPD A]"
  AUC(0-t): "6050 ng·h/mL"
